Tested on: Escherichia coli TOP10
Test: shrunken log2 fold change of peptide-encoding DNA abundance (4.5 h post-induction vs induction); higher = less antimicrobial activity (less host growth inhibition)
Conditions: time post-induction: 4.5 h; library: site-saturation at positions 5, 18, 19, 20
Please enter criterion met where shrunken log2 fold change is greater than or equal to -0.003, and criterion not met where it is lower.

Look over these answered cases.
{"Macromolecule Sequence": "RRIRFRPPRLPRPRPRPNQFPRP", "Assigned Label": "criterion not met"}
{"Macromolecule Sequence": "RRIRIRPPRLPRPRPRPLGMPRP", "Assigned Label": "criterion not met"}
{"Macromolecule Sequence": "RRIRSRPPRLPRPRPRPKESPRP", "Assigned Label": "criterion met"}
{"Macromolecule Sequence": "RRIRARPPRLPRPRPRPWHDPRP", "Assigned Label": "criterion met"}
{"Macromolecule Sequence": "RRIRDRPPRLPRPRPRPVTQPRP", "Assigned Label": "criterion not met"}
{"Macromolecule Sequence": "RRIRKRPPRLPRPRPRPDGCPRP", "Assigned Label": "criterion met"}

Determine whether this sequence has shrunken log2 fold change no lower than -0.003: `RRIRNRPPRLPRPRPRPVCSPRP` criterion not met

Could you do the same for `RRIRMRPPRLPRPRPRPFTSPRP` , please? criterion not met

Could you do the same for `RRIRNRPPRLPRPRPRPSCLPRP` , please? criterion not met

---

Test system: Escherichia coli TOP10
Assay: shrunken log2 fold change of peptide-encoding DNA abundance (4.5 h post-induction vs induction); higher = less antimicrobial activity (less host growth inhibition)
Conditions: time post-induction: 4.5 h; library: site-saturation at positions 5, 18, 19, 20
// reported shrunken log2 fold change for each item listed
Please give only the number in your answer, with no unit.

Known results for sequences:
{"Macromolecule Sequence": "RRIRPRPPRLPRPRPRPFTEPRP", "shrunken log2 fold change": -0.649}
{"Macromolecule Sequence": "RRIRIRPPRLPRPRPRPNMSPRP", "shrunken log2 fold change": -0.783}
{"Macromolecule Sequence": "RRIRVRPPRLPRPRPRPPFHPRP", "shrunken log2 fold change": 0.0102}
{"Macromolecule Sequence": "RRIRPRPPRLPRPRPRPTIEPRP", "shrunken log2 fold change": -0.0748}
{"Macromolecule Sequence": "RRIRLRPPRLPRPRPRPVGEPRP", "shrunken log2 fold change": 0.12}
{"Macromolecule Sequence": "RRIRWRPPRLPRPRPRPHLQPRP", "shrunken log2 fold change": 0.103}

So what does the record say about shrunken log2 fold change for `RRIRWRPPRLPRPRPRPQILPRP` ? -0.164

Could you do the same for `RRIRARPPRLPRPRPRPIWYPRP` , please? -0.147

Could you do the same for `RRIRSRPPRLPRPRPRPGFFPRP` , please? 0.176

Could you do the same for `RRIRRRPPRLPRPRPRPNTHPRP` , please? -0.126

Could you do the same for `RRIRFRPPRLPRPRPRPYAAPRP` , please? -0.586

Could you do the same for `RRIRLRPPRLPRPRPRPIQGPRP` , please? -0.226

Could you do the same for `RRIRLRPPRLPRPRPRPGAAPRP` , please? 0.543

Could you do the same for `RRIRCRPPRLPRPRPRPMACPRP` , please? 0.00876

Could you do the same for `RRIRMRPPRLPRPRPRPIVWPRP` , please? -0.0994

---

System: Escherichia coli TOP10
Test: shrunken log2 fold change of peptide-encoding DNA abundance (4.5 h post-induction vs induction); higher = less antimicrobial activity (less host growth inhibition)
Settings: time post-induction: 4.5 h; library: site-saturation at positions 5, 18, 19, 20
Please enter YES where shrunken log2 fold change is greater than or equal to -0.09, and NO where it is lower.

{"Macromolecule Sequence": "RRIRYRPPRLPRPRPRPTLLPRP", "Assigned Label": "NO"}

Determine whether this sequence has shrunken log2 fold change no lower than -0.09: `RRIRQRPPRLPRPRPRPEAIPRP` NO

Could you do the same for `RRIRTRPPRLPRPRPRPVHPPRP` , please? NO

---

// reported shrunken log2 fold change for each item listed
Test system: Escherichia coli TOP10
Assay: shrunken log2 fold change of peptide-encoding DNA abundance (4.5 h post-induction vs induction); higher = less antimicrobial activity (less host growth inhibition)
Settings: time post-induction: 4.5 h; library: site-saturation at positions 5, 18, 19, 20
Please give only the number in your answer, with no unit.

Known results for sequences:
{"Macromolecule Sequence": "RRIRHRPPRLPRPRPRPHETPRP", "shrunken log2 fold change": 0.0369}
{"Macromolecule Sequence": "RRIRLRPPRLPRPRPRPNWKPRP", "shrunken log2 fold change": -0.225}
{"Macromolecule Sequence": "RRIRSRPPRLPRPRPRPFYAPRP", "shrunken log2 fold change": -0.236}
{"Macromolecule Sequence": "RRIRMRPPRLPRPRPRPLWQPRP", "shrunken log2 fold change": 0.304}
{"Macromolecule Sequence": "RRIRRRPPRLPRPRPRPSKIPRP", "shrunken log2 fold change": 0.0224}
{"Macromolecule Sequence": "RRIRIRPPRLPRPRPRPVPPPRP", "shrunken log2 fold change": 0.144}
{"Macromolecule Sequence": "RRIRDRPPRLPRPRPRPWHNPRP", "shrunken log2 fold change": -0.144}
{"Macromolecule Sequence": "RRIRFRPPRLPRPRPRPRHEPRP", "shrunken log2 fold change": 0.197}
{"Macromolecule Sequence": "RRIRDRPPRLPRPRPRPSPWPRP", "shrunken log2 fold change": 0.188}
{"Macromolecule Sequence": "RRIRARPPRLPRPRPRPRPNPRP", "shrunken log2 fold change": 0.493}

I'm curious: which shrunken log2 fold change was measured for `RRIRIRPPRLPRPRPRPLGIPRP` tested on Escherichia coli TOP10? 0.132

Could you do the same for `RRIRVRPPRLPRPRPRPSDLPRP` , please? -0.196

Could you do the same for `RRIRARPPRLPRPRPRPVPMPRP` , please? 0.404

Could you do the same for `RRIRVRPPRLPRPRPRPNWRPRP` , please? 0.4

Could you do the same for `RRIRSRPPRLPRPRPRPACLPRP` , please? 0.0251

---

System: Escherichia coli TOP10
Assay: shrunken log2 fold change of peptide-encoding DNA abundance (4.5 h post-induction vs induction); higher = less antimicrobial activity (less host growth inhibition)
Conditions: time post-induction: 4.5 h; library: site-saturation at positions 5, 18, 19, 20
// reported shrunken log2 fold change for each item listed
Please give only the number in your answer, with no unit.

Known results for sequences:
{"Macromolecule Sequence": "RRIRARPPRLPRPRPRPCRLPRP", "shrunken log2 fold change": -0.0461}
{"Macromolecule Sequence": "RRIRRRPPRLPRPRPRPWAEPRP", "shrunken log2 fold change": 2.36}
{"Macromolecule Sequence": "RRIRARPPRLPRPRPRPWKLPRP", "shrunken log2 fold change": -0.36}
{"Macromolecule Sequence": "RRIRQRPPRLPRPRPRPYVKPRP", "shrunken log2 fold change": -0.365}
{"Macromolecule Sequence": "RRIRHRPPRLPRPRPRPKQQPRP", "shrunken log2 fold change": -0.0484}
{"Macromolecule Sequence": "RRIRLRPPRLPRPRPRPNLSPRP", "shrunken log2 fold change": -0.548}
{"Macromolecule Sequence": "RRIRTRPPRLPRPRPRPRNSPRP", "shrunken log2 fold change": -0.193}
{"Macromolecule Sequence": "RRIRTRPPRLPRPRPRPCRIPRP", "shrunken log2 fold change": -0.0965}
{"Macromolecule Sequence": "RRIRERPPRLPRPRPRPKIMPRP", "shrunken log2 fold change": -1.24}
{"Macromolecule Sequence": "RRIRYRPPRLPRPRPRPQTHPRP", "shrunken log2 fold change": -1.08}

So what does the record say about shrunken log2 fold change for `RRIRYRPPRLPRPRPRPNKHPRP` ? -0.916

---

// reported shrunken log2 fold change for each item listed
System: Escherichia coli TOP10;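 note: peptides expressed intracellularly from a pBAD plasmid library in pooled LB shake-flask culture, induced with 0.3% L-arabinose, DNA abundance read by NGS, three biological replicates, DESeq2 with apeglm shrinkage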
Experiment: shrunken log2 fold change of peptide-encoding DNA abundance (4.5 h post-induction vs induction); higher = less antimicrobial activity (less host growth inhibition)
Conditions: time post-induction: 4.5 h; library: site-saturation at positions 5, 18, 19, 20
Please give only the number in your answer, with no unit.

{"Macromolecule Sequence": "RRIRTRPPRLPRPRPRPDDWPRP", "Measured Result": 0.276}
{"Macromolecule Sequence": "RRIRYRPPRLPRPRPRPKYSPRP", "Measured Result": -0.274}
{"Macromolecule Sequence": "RRIRLRPPRLPRPRPRPDNHPRP", "Measured Result": -0.519}
{"Macromolecule Sequence": "RRIRKRPPRLPRPRPRPNDYPRP", "Measured Result": -0.115}
{"Macromolecule Sequence": "RRIRCRPPRLPRPRPRPFSGPRP", "Measured Result": -0.275}

So what does the record say about shrunken log2 fold change for `RRIRDRPPRLPRPRPRPGPHPRP` ? 0.132

Could you do the same for `RRIRIRPPRLPRPRPRPAAWPRP` , please? 0.112

Could you do the same for `RRIRNRPPRLPRPRPRPGHAPRP` , please? 0.32

Could you do the same for `RRIRGRPPRLPRPRPRPWYEPRP` , please? -0.14

Could you do the same for `RRIRLRPPRLPRPRPRPSMAPRP` , please? -0.0685

Could you do the same for `RRIRIRPPRLPRPRPRPWIYPRP` , please? -0.126

Could you do the same for `RRIRFRPPRLPRPRPRPVVSPRP` , please? 0.0235
